- Target under test: Bcl-xL-Beclin 1 complex (Homo sapiens)
- Construct: made in house
- Procedure details: FP-based high-throughput screening, primary screen
- Format: binding
- Condition details: first screen; 40 μM compound, 2.5 μM Bcl-xL, 400 nM 20-mer
Item-by-item account of Primary Screen % Inhibition
Kindly provide the numeric value in % only, without the unit symbol.

Molecule	Reported result
CCN(CC)CCNC(=O)COc1ccc(OC)cc1.Cl [Compound A32, MEFEXAMIDE HYDROCHLORIDE]	14.40
CC[N+](C)(CC)CCC[n+]1c(-c2ccccc2)c2cc(N)ccc2c2ccc(N)cc21.[I-].[I-] [Compound A40, PROPIDIUM IODIDE]	7.08
C[n+]1c2cc(N)ccc2cc2ccc(N)cc21.[Cl-] [Compound A26, ACRIFLAVINIUM HYDROCHLORIDE]	102.40

Moving on to the next molecule.
Would you mind telling me what Primary Screen % Inhibition value was observed for CCCCCCCCCCCCCCCCC(C(=O)O)C(O)(CC(=O)O)C(=O)O (stereo not shown) ?
15.85

###

- Target under test: Bcl-xL-Beclin 1 complex (Homo sapiens, UniProt Q07817)
- Construct: made in house
- Sequence (Q07817 whole entry, one chain of several): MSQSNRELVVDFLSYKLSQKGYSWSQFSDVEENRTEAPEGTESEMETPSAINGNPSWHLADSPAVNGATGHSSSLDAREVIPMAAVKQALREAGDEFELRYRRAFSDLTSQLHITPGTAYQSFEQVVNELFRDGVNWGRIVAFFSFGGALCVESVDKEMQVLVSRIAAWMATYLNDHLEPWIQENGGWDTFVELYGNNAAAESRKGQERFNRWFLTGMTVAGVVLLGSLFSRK
- Procedure details: Concentration response FP reconfirmation of HTS hits
- Format: binding
- Condition details: 80 μM; hits of first screen; read-out: Dose-response (% Inhibition) 80 μM
Counter-ions that a name gives are not always drawn.
Item-by-item account of inhibition at 80 µM
Kindly provide the numeric value in % only, without the unit symbol.

Solved cases below.
Compound	Parameter	Measure unit	Reported result
CC1=NCCc2c1[nH]c1cc(O)ccc21 [Compound A28, HARMALOL HYDROCHLORIDE]	inhibition at 80 µM	%	73
O=C1c2c(O)ccc(O)c2C(=O)c2c(NCCNCCO)ccc(NCCNCCO)c21 [Compound A11, MITOXANTRONE HYDROCHLORIDE]	inhibition at 80 µM	%	32.9
CCCc1nc2c(C)cc(-c3nc4ccccc4n3C)cc2n1Cc1ccc(-c2ccccc2C(=O)O)cc1	inhibition at 80 µM	%	6.3

Would you mind telling me what inhibition at 80 µM value was observed for Cc1cc2nc3c(=O)[nH]c(=O)nc-3n(C[C@H](O)[C@H](O)[C@H](O)CO)c2cc1C ?
102

###

- Target under test: Bcl-xL-Beclin 1 complex (Homo sapiens)
- Construct: made in house
- Procedure details: Concentration response FP reconfirmation of HTS hits
- Assay type: binding
- Condition details: 160 μM; hits of first screen; read-out: Dose-response (% Inhibition) 160 μM
- Procedure: Then the plates were read by Envision (Perkin Elmer, Waltham, MA). […] The hits were selected from library stocks and reconfirmed in a concentration response FP assay (6 doses ranging from 5 μM to 160 μM or 8 doses ranging from 0.5 μM to 60 μM).
Item-by-item account of inhibition at 160 µM
Kindly provide the numeric value in % only, without the unit symbol.

Solved cases below.
Compound	Measure unit	inhibition at 160 µM
CCc1oc2ccccc2c1C(=O)c1cc(Br)c(O)c(Br)c1	%	11.3
O=C(O)c1cc(O)c2c(c1)[C@H]([C@H]1c3cc(C(=O)O)cc(O)c3C(=O)c3c(O[C@@H]4O[C@H](CO)[C@@H](O)[C@H](O)[C@H]4O)cccc31)c1cccc(O[C@@H]3O[C@H](CO)[C@@H](O)[C@H](O)[C@H]3O)c1C2=O [Compound A34, SENNOSIDE A]	%	20.9
OCCN(CCO)c1nc(N2CCCCC2)c2nc(N(CCO)CCO)nc(N3CCCCC3)c2n1	%	72.4
Cc1cc2nc3c(=O)[nH]c(=O)nc-3n(C[C@H](O)[C@H](O)[C@H](O)CO)c2cc1C	%	103
COC(=O)CC[C@@H](C)[C@H]1CC[C@H]2[C@@H]3[C@H](O)C[C@@H]4C[C@H](O)CC[C@]4(C)[C@H]3C[C@H](O)[C@]12C	%	13.2

Moving on to the next compound.
Would you mind telling me what inhibition at 160 µM value was observed for CCOc1ccc2nc3cc(N)ccc3c(N)c2c1 [Compound A15, ETHACRIDINE LACTATE] ?
60.9
